Please provide measured pIC50 for the entries that follow.
Molecular target: OATP1B1 (Homo sapiens)
Sequence (Q9Y6L6 whole entry): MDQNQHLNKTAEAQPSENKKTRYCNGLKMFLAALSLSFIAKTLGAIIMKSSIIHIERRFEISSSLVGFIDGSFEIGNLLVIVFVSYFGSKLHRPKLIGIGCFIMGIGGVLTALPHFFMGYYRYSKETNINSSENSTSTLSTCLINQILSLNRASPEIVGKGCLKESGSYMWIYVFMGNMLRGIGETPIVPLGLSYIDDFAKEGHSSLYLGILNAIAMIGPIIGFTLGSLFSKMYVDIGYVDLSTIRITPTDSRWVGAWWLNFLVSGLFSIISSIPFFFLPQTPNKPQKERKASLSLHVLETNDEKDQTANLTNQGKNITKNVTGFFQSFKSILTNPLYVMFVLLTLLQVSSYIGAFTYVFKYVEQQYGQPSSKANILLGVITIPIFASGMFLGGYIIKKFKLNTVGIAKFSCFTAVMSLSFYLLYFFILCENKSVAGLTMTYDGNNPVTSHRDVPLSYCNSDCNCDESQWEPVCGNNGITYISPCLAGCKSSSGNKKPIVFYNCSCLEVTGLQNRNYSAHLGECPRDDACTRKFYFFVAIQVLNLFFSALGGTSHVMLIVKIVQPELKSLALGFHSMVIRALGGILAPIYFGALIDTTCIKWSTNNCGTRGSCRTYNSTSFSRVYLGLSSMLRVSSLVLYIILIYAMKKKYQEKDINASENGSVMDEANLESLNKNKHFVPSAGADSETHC
Assay: Uptake transporter inhibition assay, OATP1B1
Reminder that pIC50 means the negative base-10 logarithm of the concentration expressed in mol/L.

Request: What value of pIC50 has been recorded for this entry: `CC#C[C@@H](CC(=O)O)c1ccc(OCC(C)=C(C)C)cc1`
Result: 4.75

Request: What value of pIC50 has been recorded for this entry: Cc1cc(OCCCS(C)(=O)=O)cc(C)c1-c1cccc(COc2ccc3c(c2)OC[C@H]3CC(=O)O)c1 [TAK-875, fasiglifam, reference compound]
Result: 6.31

* * *

Assay: Single-dose pharmacokinetics in rats (p.o. and i.v.)
Format: in vivo, rat
Conditions: rat, plasma; rats, 3 mg/kg
readout.kind: Vd
Put your answer as a value accompanied by its unit after it.

Request: What value of Vd has been recorded for this entry: CC#C[C@@H](CC(=O)O)c1ccc(OCC(C)=C(C)C)cc1 [CPL207280]
Result: 0.2 L/kg

Request: What value of Vd has been recorded for this entry: Cc1cc(OCCCS(C)(=O)=O)cc(C)c1-c1cccc(COc2ccc3c(c2)OC[C@H]3CC(=O)O)c1 [TAK-875, fasiglifam, reference compound]
Result: 0.25 L/kg
